assay: qHTS for Inhibitors of human tyrosyl-DNA phosphodiesterase 1 (TDP1): qHTS in cells in presence of CPT; settings: chicken DT40 Tdp1-/-;hTDP1 cells + 20 nM CPT, ATP luminescence, 48 h; series mostly up to 46.2 µM; also: nearly all actives have a fitted effect of over 55% in size
In all, about 420,000 compounds went through this assay and about 50,000 (12%) were called active. Another 26% or so got no clear call; they are omitted. Calls follow the shape of the dose curve; as a rule, active = well fitted inhibition curve with a large enough effect; inconclusive = small, poorly fitted or top-dose-only effect; inactive = flat fitted curve, though single readings scatter. This excerpt belongs to a sample that is enriched for actives.
Give one outcome, nothing more. List: active, inactive

1. Nc1nc2c(ncn2[C@@H]2O[C@H](CNS(=O)(=O)N3CCc4ccccc4C3)[C@@H](O)[C@H]2O)c(=O)[nH]1; inactive

## Task Query: recorded result category for `Cc1ccc(SCC(=O)N2CCN(c3ccc(F)cc3)CC2)cc1` in this test
## Result inactive

## Task Repeat with `COc1ccc(-c2nc3n(c(=O)c2C#N)CCS3)c(OC)c1`
## Result inactive

## Task For `Cc1ccc(-c2noc(CSc3nnc(-c4ccncc4)n3-c3ccc(F)cc3)n2)cc1` then?
## Result active

## Task Try `Cc1ccc(-c2nnc(Nc3ccc(C(=O)N(C)C)cc3)c3ccccc23)cc1S(N)(=O)=O` next.
## Result inactive

## Task Same for `COc1cccc(OC)c1C(=O)N1CCN(Cc2cccnc2)CC1`
## Result inactive

====

test: qHTS for Inhibitors of human tyrosyl-DNA phosphodiesterase 1 (TDP1): qHTS in cells in presence of CPT; conditions: chicken DT40 Tdp1-/-;hTDP1 cells + 20 nM CPT, ATP luminescence, 48 h; series mostly up to 46.2 µM; also: nearly all actives have a fitted effect of over 55% in size
Among all 420,000 compounds or so, about 50,000 (12%) were called active. Inconclusive results (about 26%) are left out. Calls follow the shape of the dose curve; as a rule, active = well fitted inhibition curve with a large enough effect; inconclusive = small, poorly fitted or top-dose-only effect; inactive = flat fitted curve, though single readings scatter. For the sample, actives were picked, then their nearest neighbours and some compounds at random.
// one of active, inactive, no free text

See these solved cases before continuing.
1. COc1ccc(-c2nnc(-c3ccc4ccccc4c3)o2)cc1; inactive
2. Cc1ccc(-c2csc(NC(=O)Cc3cccs3)n2)cc1C; inactive
3. CC(=O)c1cccc(NC(=O)C2COc3ccccc3O2)c1 (stereo unspecified); inactive

## Task Which result was noted for this compound in the test: O=C(Nc1nc(-c2ccncc2)cs1)C1COc2ccccc2O1 (stereo unspecified)
## Result active

## Task Again, but for COC(=O)c1ccc(/C=N/N2C(C)CCCC2C)cc1 (stereo unspecified)
## Result inactive

====

test: qHTS for Inhibitors of human tyrosyl-DNA phosphodiesterase 1 (TDP1): qHTS in cells in presence of CPT; details: chicken DT40 Tdp1-/-;hTDP1 cells + 20 nM CPT, ATP luminescence, 48 h; series mostly up to 46.2 µM; also: nearly all actives have a fitted effect of over 55% in size; also: potency is read from the fitted curve at half-maximal effect
Hit rate of the full screen: of about 420,000 compounds, about 50,000 (12%) were called active. Not shown: some 26% with an inconclusive outcome. The list comes from a sample in which actives are over-represented; it also holds close analogues and randomly drawn compounds.
METRIC: Potency

A selection of reference data follows.
1) Nc1ccc2[nH]c(=S)sc2c1; inactive
2) Cc1nn(-c2ccc(N3CCCCC3)nn2)c(C)c1CCC(=O)NCc1ccccc1F; inactive
3) CCC1(C2CCN(C(=O)c3cccc(F)c3F)CC2)NC(=O)N(CCc2scnc2C)C1=O (stereo not given); inactive
4) CN(CC(=O)Nc1cccc(F)c1)C(=O)CC1CCCC1; inactive
5) CC1CCCN(Cc2c(O)ccc3c(=O)c(Oc4ccc(C(C)(C)C)cc4)c(C(F)(F)F)oc23)C1 (stereo not given); inactive
6) Cc1ccc(NC(=O)CCC(=O)c2ccc(Br)cc2)cc1; inactive

Record Potency for all entries; do not skip any.
1. CC(C)(C)C(=O)Nc1ccc(C(=O)N/N=C/c2ccccc2OC(=O)c2ccc(Cl)cc2Cl)cc1
2. CN(CCc1ccccn1)C(=O)c1ccc(OC2CCN(Cc3ccccn3)CC2)cc1
3. CCOc1ccc(CNC(=O)CCc2c(C)nn(-c3ccc(N4CCCCC4)nn3)c2C)cc1
4. CCOc1ccc2[nH]c(=S)sc2c1

## Result
["14.6 µM (active)", "inactive", "25.9 µM (active)", "18.4 µM (active)"]

====

experiment: qHTS for Inhibitors of human tyrosyl-DNA phosphodiesterase 1 (TDP1): qHTS in cells in presence of CPT; conditions: chicken DT40 Tdp1-/-;hTDP1 cells + 20 nM CPT, ATP luminescence, 48 h; series mostly up to 46.2 µM; also: nearly all actives have a fitted effect of over 55% in size
The campaign covered roughly 420,000 compounds. About 50,000 (12%) were called active. Inconclusive results (about 26%) are left out. Calls follow the shape of the dose curve; as a rule, active = well fitted inhibition curve with a large enough effect; inconclusive = small, poorly fitted or top-dose-only effect; inactive = flat fitted curve, though single readings scatter. This is one part of a sample in which actives are shown more often than they occur.
Would you mind answering with one of these outcomes? active, inactive

Please review the entries below; each comes with its answer.
1. COc1cccc(-c2cccc(NC(=O)C3CCN(C4CCC4)CC3)c2)c1; inactive
2. O=C(COC(=O)c1ncc(Cl)c(Cl)c1Cl)NC1CCS(=O)(=O)C1 (centres undefined); inactive
3. COc1ccc(OC)c(NC(=O)C2CCCN2S(=O)(=O)c2ccc3c(c2)CC(C)N3C(C)=O)c1 (centres undefined); active
4. CN(C(=O)c1cccc([N+](=O)[O-])c1)c1ccccc1C(=O)NCc1ccccc1; inactive
5. Cc1cn(C2OC[C@@H](O)[C@@H]2CO)c(=O)[nH]c1=O (some centres undefined); inactive

## Task // return assay outcome for COc1ccccc1NC(=O)CSC1=Nc2ccccc2C2=NC(CC(=O)NCc3cccs3)C(=O)N12 (centres undefined)
## Result active

## Task Would you kindly repeat that for CC(=O)N1c2ccc(S(=O)(=O)N3CCCC(C(=O)Nc4cccc(F)c4)C3)cc2CC1C (centres undefined) ?
## Result active

## Task What about `Cc1cccc(NC(=O)c2cc(S(=O)(=O)N3CCC4(CC3)OCCO4)ccc2F)c1` ?
## Result inactive

## Task Repeat with CC(=O)N1c2ccc(S(=O)(=O)N3CCC(C(=O)NC4CCCCC4C)CC3)cc2CC1C (centres undefined)
## Result inactive

====

experiment: qHTS for Inhibitors of human tyrosyl-DNA phosphodiesterase 1 (TDP1): qHTS in cells in presence of CPT; conditions: chicken DT40 Tdp1-/-;hTDP1 cells + 20 nM CPT, ATP luminescence, 48 h; series mostly up to 46.2 µM; also: nearly all actives have a fitted effect of over 55% in size
In all, about 420,000 compounds went through this assay and about 50,000 (12%) were called active. About 26% were inconclusive and are not listed. Calls follow the shape of the dose curve; as a rule, active = well fitted inhibition curve with a large enough effect; inconclusive = small, poorly fitted or top-dose-only effect; inactive = flat fitted curve, though single readings scatter. The sample holds actives, similar compounds and a random draw of the others, so the mix is not that of the screen.
Outcome field: choose from active, inactive

Worked examples follow.
1. COc1ccc(-c2nc(CS(=O)CC(=O)NCc3ccccc3)c(C)o2)cc1OC (configuration not stated); inactive
2. COc1cc(/C=N\NC(=O)C2C(=O)NCC2c2ccccc2)cc(OC)c1O (configuration not stated); inactive
3. COc1ccc(CC(=O)Nc2nc(-c3ccc(F)c(F)c3)cs2)cc1OC; active
4. CCn1c(SCC(=O)NCC2CCCO2)nc2ccccc21 (configuration not stated); inactive
5. O=C(NCc1ccc2c(c1)CCN2C(=O)c1ccccc1)Nc1cc(F)ccc1F; active

# ---- query molecule ----
## Task Test call, this molecule: `O=C(N/N=C\c1cccnc1)c1cc(-c2ccccc2)nc2c(Cl)cccc12`
## Result active

====

experiment: qHTS for Inhibitors of human tyrosyl-DNA phosphodiesterase 1 (TDP1): qHTS in cells in presence of CPT; conditions: chicken DT40 Tdp1-/-;hTDP1 cells + 20 nM CPT, ATP luminescence, 48 h; series mostly up to 46.2 µM; also: nearly all actives have a fitted effect of over 55% in size
The whole screen tested about 420,000 compounds, of which about 50,000 (12%) were called active. Roughly 26% stayed inconclusive and do not appear here. Calls follow the shape of the dose curve; as a rule, active = well fitted inhibition curve with a large enough effect; inconclusive = small, poorly fitted or top-dose-only effect; inactive = flat fitted curve, though single readings scatter. For the sample, actives were picked, then their nearest neighbours and some compounds at random.
A correct response names exactly one class from T (active), F (inactive)

Record excerpt, results attached:
1. CCc1nn(-c2cc(Oc3cccc4ccccc34)nc(-c3ccccc3)n2)c(N)c1C#N; T
2. O=C(NCC(O)c1nc2ccccc2[nH]1)c1ccc(Br)cc1 (stereo not drawn); F
3. Cc1coc(C)c1C(=O)CC1(O)C(=O)N(C)c2ccc(Cl)cc21 (stereo not drawn); F
4. Cc1ccc(Cl)c(NC(=O)CN(C)CC(=O)Nc2ccc(F)c(F)c2F)c1Cl; F
5. NC(=O)NCCCC(=O)O; F

## Task # lookup: test call for `CCCC(=O)n1nc(-c2ccccc2)nc1N`
## Result F

## Task Now give it for Cc1nc(C)c(C(=O)N(c2ccc(C)c(C)c2)C(C(=O)NCc2ccco2)c2ccccc2)s1 (stereo not drawn) too.
## Result F

## Task Would you mind doing Cc1ccc(-c2nnn(CC(=O)N(Cc3ccco3)C(C(=O)NC(C)(C)C)c3ccncc3)n2)o1 (stereo not drawn) as well?
## Result F

## Task Try this compound too: `COc1cc(/C=C/C(=O)O)cc(S(=O)(=O)Nc2ccccc2SC)c1OC`
## Result F

## Task Queued: CCn1c(C(C)NC(=O)c2ccc(C)cc2)n[nH]c1=S (stereo not drawn)
## Result F

## Task One more compound: `CC1(C)C=Cc2c(ccc3c2OC[C@@H](c2ccc(O)cc2O)C3)O1`
## Result T

## Task Then what about the compound `COc1ccccc1OCCOc1ccc(/C=C2\C(=N)N3N=C(C)SC3=NC2=O)cc1` ?
## Result F

## Task // same read-out, input: `COc1ccc2[nH]c3c(C)c4cc[n+](C)cc4c(C)c3c2c1`
## Result T

## Task # iterate: `O=C(O)c1ccccc1-c1ccccc1C(=O)NCCc1ccccc1`
## Result F

## Task Try this compound too: `C[N+]1(CC(=O)c2cccs2)CCOCC1`
## Result F

## Task Next: `CC(C)CCOc1ccc(C(=O)C[N+]2(C)CCOCC2)cc1`
## Result T

## Task Entry `CCc1ccc(C(=O)COC(=O)c2ccco2)cc1` please
## Result F

## Task Consider next the compound CC(Cc1cccs1)N(Cc1ccc(Cl)cc1)C(=O)c1ccncc1 (stereo not drawn) in the same way.
## Result F

## Task What do you have for CCC(=O)c1ccc(OCC(O)CN2CC(C)OC(C)C2)cc1 (stereo not drawn) ?
## Result F

## Task # repeat for `O=C(Nc1ccc(-c2ccc3nncn3n2)cc1)C1CCCCC1`
## Result F

## Task Similarly, `Cc1cccc(S(=O)(=O)N(C)C[C@@H]2OCc3cnnn3CCCC(=O)N([C@H](C)CO)C[C@@H]2C)c1` ?
## Result F

## Task Please answer likewise for `COc1ccc2[nH]c3ccc(OC)cc3c2c1`
## Result F

## Task Would you mind doing `Cc1cccc(CN2CCC(n3nccc3NC(=O)c3ccccc3C)CC2)n1` as well?
## Result F
